# Tested on: A-549
# measurement-protocol: MTT assay, A-549
# Type: cell-based
# condition-info: IC50 for normal cell line (HDF)/IC50 for A-549
Assignment: determine reported Selectivity Index A-549 for the given compounds.
Lab note: write the figure by itself, no unit.

CC1(C)CCC2(C(=O)N3CCOCC3)CCC3(C)C(=CCC4C5(C)CCC(=NO)C(C)(C)C5CCC43C)C2C1 (stereo not drawn) [Compound 4] has a reported Selectivity Index A-549 of 1.91

Note to self: Selectivity Index A-549 recorded for CC(=O)O/N=C1\CC[C@@]2(C)C(CC[C@]3(C)C2CC=C2C4CC(C)(C)CC[C@]4(C(=O)N4CCOCC4)CC[C@]23C)C1(C)C (stereo partly drawn) [Compound 7a] was 1.37

Selectivity Index A-549 recorded for this compound, COC(=O)[C@]12CCC(C)(C)CC1C1=CC(=O)C3[C@@]4(C)CC/C(=N\OC(=O)c5cccc([N+](=O)[O-])c5)C(C)(C)C4CC[C@@]3(C)[C@]1(C)CC2 (stereo partly drawn) [Compound 6e] , is 1.31

* * *

Give measured IC50 for each item. Keep answers brief.
# Tested on: HDF (normal fibroblast cell line)
# measurement-protocol: MTT assay, HDF
# Assay type: cell-based, human
# condition-info: Homo sapiens, Fibroblast, MTT assay; HDF normal fibroblast cell line; (±s) standard deviation

Per the records, this compound ( COC(=O)[C@]12CCC(C)(C)CC1C1=CCC3[C@@]4(C)CC/C(=N\OC(=O)CCl)C(C)(C)C4CC[C@@]3(C)[C@]1(C)CC2 (stereo partly drawn) ) has IC50 equal to 37 µM

Noted for COC(=O)[C@]12CCC(C)(C)CC1C1=CC(=O)C3[C@@]4(C)CC/C(=N\OC(=O)c5ccc([N+](=O)[O-])cc5)C(C)(C)C4CC[C@@]3(C)[C@]1(C)CC2 (stereo partly drawn) : its IC50 reads 37.2 µM

For this compound ( COC(=O)C12CCC(C)(C)CC1C1=CCC3C4(C)CCC(=NO)C(C)(C)C4CCC3(C)C1(C)CC2 (stereo not drawn) [Compound 2, methyl oleanonate oxime] ), measured IC50 is 21.1 µM

Lookup result for COC(=O)[C@]12CCC(C)(C)CC1C1=CCC3[C@@]4(C)CC/C(=N\OC(=O)c5ccc([N+](=O)[O-])cc5)C(C)(C)C4CC[C@@]3(C)[C@]1(C)CC2 (stereo partly drawn) ; measured IC50: 132 µM

Quick note, IC50 for CCC(=O)O/N=C1\CC[C@@]2(C)C(CC[C@]3(C)C2CC=C2C4CC(C)(C)CC[C@]4(C(=O)OC)CC[C@]23C)C1(C)C (stereo partly drawn) landed at 39.9 µM

Record CCC(=O)O/N=C1\CC[C@@]2(C)C(CC[C@]3(C)C2C(=O)C=C2C4CC(C)(C)CC[C@]4(C(=O)OC)CC[C@]23C)C1(C)C (stereo partly drawn) . Reported IC50: ~50 µM

Lab note: CC1(C)CC[C@]2(C(=O)N3CCOCC3)CC[C@]3(C)C(=CCC4[C@@]5(C)CC/C(=N\OC(=O)CCl)C(C)(C)C5CC[C@]43C)C2C1 (stereo partly drawn) gave IC50 of 39.1 µM

The measured IC50 associated with CC1(C)CCC2(C(=O)N3CCOCC3)CCC3(C)C(=CCC4C5(C)CCC(=NO)C(C)(C)C5CCC43C)C2C1 (stereo not drawn) reads 13.9 µM

Entry COC(=O)[C@]12CCC(C)(C)CC1C1=CCC3[C@@]4(C)CC/C(=N\OC(C)=O)C(C)(C)C4CC[C@@]3(C)[C@]1(C)CC2 (stereo partly drawn) , IC50 reported as 29 µM
